Some binders, each annotated with its measured EC50.
# assay.system: T1, human MSLN on OVCAR3 tumor cells (human, UniProt Q13421 296-598)
# T1 construct: whole, on cells; also called human MSLN protein
# T1 sequence (Q13421 other isoform, or with tags, fused parts or gaps): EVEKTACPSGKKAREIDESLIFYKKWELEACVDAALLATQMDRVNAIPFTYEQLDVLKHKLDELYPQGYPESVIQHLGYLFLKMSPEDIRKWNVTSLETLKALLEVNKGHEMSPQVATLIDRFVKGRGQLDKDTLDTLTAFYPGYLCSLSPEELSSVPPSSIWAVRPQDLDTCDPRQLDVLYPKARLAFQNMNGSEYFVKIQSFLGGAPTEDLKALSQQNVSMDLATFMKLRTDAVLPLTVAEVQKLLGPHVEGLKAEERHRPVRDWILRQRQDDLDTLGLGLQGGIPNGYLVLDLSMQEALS
# method: FACS, OVCAR3 cells
Could you give me the number in nM? Just the number is fine.

F7.44.20-H6 (scFv, not shown: small tags and cut ends, also called S009-F7.44.20 humanized antibody VH1a + VL2) scFv: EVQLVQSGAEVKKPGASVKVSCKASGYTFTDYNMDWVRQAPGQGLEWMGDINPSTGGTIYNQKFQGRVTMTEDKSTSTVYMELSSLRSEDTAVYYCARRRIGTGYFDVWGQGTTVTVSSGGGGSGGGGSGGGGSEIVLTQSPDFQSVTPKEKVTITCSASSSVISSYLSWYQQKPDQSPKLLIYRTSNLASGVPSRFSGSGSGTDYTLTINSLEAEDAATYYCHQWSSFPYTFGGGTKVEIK = 1.6

Would you mind telling me what EC50 value was observed for F7.44.20-H9 (scFv, not shown: small tags and cut ends, also called S009-F7.44.20 humanized antibody VH2 + VL1) scFv: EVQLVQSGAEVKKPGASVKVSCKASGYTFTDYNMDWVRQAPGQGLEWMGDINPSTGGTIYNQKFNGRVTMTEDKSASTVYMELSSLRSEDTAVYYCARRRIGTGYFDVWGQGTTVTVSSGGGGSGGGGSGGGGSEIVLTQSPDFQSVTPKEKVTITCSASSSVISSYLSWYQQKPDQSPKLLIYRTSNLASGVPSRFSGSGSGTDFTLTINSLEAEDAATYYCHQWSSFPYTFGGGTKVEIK ? 1.61
